meta.source: patent US7166634B2

Would you kindly list MSSA 29213 MIC for each of these compounds?
Test system: S. aureus - MSSA (29213)
method notes: MIC, broth microdilution (NCCLS M7-A5)
Format: cell-based
assay conditions: Table 4; averages of 2 experiments, * single experiment; both values given when differing >2 fold; in µg/mL
One number for each entry.

Some compounds with recorded MSSA 29213 MIC:
INSERT INTO assay_data (smi, numeric_readout) VALUES
  ('COC(=O)c1[nH]cc(-c2c[nH]c3ccc(Br)cc23)c1-c1c[nH]c2ccc(Br)cc12', 1.4),
  ('O=C(O)c1[nH]cc(-c2c[nH]c3cc(Cl)c(Cl)cc23)c1-c1c[nH]c2ccc(Cl)cc12', 4);

Attention now shifts to the item below.
Task: What value of measured MSSA 29213 MIC is listed for `COC(=O)c1[nH]c(C(=O)OC)c(-c2c[nH]c3cc(F)c(Cl)cc23)c1-c1c[nH]c2ccc(Cl)cc12` ?
Output: 1.25

###

Please provide measured MRSA 43300 MIC for the entries that follow.
Test system: S. aureus - MRSA (43300)
method notes: MIC, broth microdilution (NCCLS M7-A5)
Format: cell-based
assay conditions: Table 4; averages of 2 experiments, * single experiment; both values given when differing >2 fold; in µg/mL

These recorded examples may help you get a feel for the data.
INSERT INTO results (compound, target_of_assay, attribute_measured, result) VALUES
  ('COC(=O)c1[nH]c(C(=O)OC)c(-c2c[nH]c3ccccc23)c1-c1c[nH]c2ccccc12 [IX]', 'S. aureus - MRSA (43300)', 'MRSA 43300 MIC', '>32'),
  ('COC(=O)c1[nH]c(C(=O)OC)c(-c2c[nH]c3ccc(Cl)cc23)c1-c1c[nH]c2ccc(F)cc12 [XX]', 'S. aureus - MRSA (43300)', 'MRSA 43300 MIC', 5),
  ('O=C(O)c1[nH]cc(-c2c[nH]c3ccc(Cl)cc23)c1-c1c[nH]c2ccc(Cl)cc12 [VII]', 'S. aureus - MRSA (43300)', 'MRSA 43300 MIC', '16*'),
  ('COC(=O)c1[nH]cc(-c2c[nH]c3cc(Cl)c(Cl)cc23)c1-c1c[nH]c2ncccc12 [XIV]', 'S. aureus - MRSA (43300)', 'MRSA 43300 MIC', 6),
  ('COC(=O)c1[nH]cc(-c2c[nH]c3cc(F)c(Cl)cc23)c1-c1c[nH]c2ccc(Cl)cc12 [XVII]', 'S. aureus - MRSA (43300)', 'MRSA 43300 MIC', '1*');

Could you report MRSA 43300 MIC for every entry in the following list?
1. COC(=O)c1[nH]c(C(=O)OC)c(-c2c[nH]c3cc(F)c(Cl)cc23)c1-c1c[nH]c2ccc(Cl)cc12 [XXII]
2. COC(=O)c1[nH]c(C(=O)OC)c(-c2c[nH]c3cc(F)ccc23)c1-c1c[nH]c2ccccc12 [XXV]
3. COC(=O)c1[nH]cc(-c2c[nH]c3ccc(Br)cc23)c1-c1c[nH]c2ccc(Br)cc12 [XVI]
4. COC(=O)c1[nH]c(C(=O)OC)c(-c2c[nH]c3ccc(F)cc23)c1-c1c[nH]c2ccc(F)cc12 [XVIII]
5. COC(=O)c1[nH]c(C(=O)OC)c(-c2c[nH]c3ncccc23)c1-c1c[nH]c2ccc(Cl)cc12 [XIII]
6. COC(=O)c1[nH]c(C(=O)OC)c(-c2c[nH]c3ccc(F)cc23)c1-c1c[nH]c2ccccc12 [XXIII]
7. O=C(O)c1[nH]cc(-c2c[nH]c3cc(Cl)c(Cl)cc23)c1-c1c[nH]c2ccc(Cl)cc12 [XII]

Output:
1: 1.5; 2: 8*; 3: 2.5; 4: 12*; 5: 4*; 6: >32*; 7: 6

Each compound below has a recorded value; state its MRSA 43300 MIC.
1. COC(=O)c1[nH]cc(-c2c[nH]c3cc(Cl)c(F)cc23)c1-c1c[nH]c2ccc(F)cc12 [XXIV]
2. O=C(O)c1[nH]c(C(=O)O)c(-c2c[nH]c3ccc(Cl)cc23)c1-c1c[nH]c2ccc(Cl)cc12 [VIII]

Output:
1.5*
>16
